Values from the supplement of paper PMC8728848

Target: Fuc(a1-2)[Gal(a1-3)]Gal(b1-4)GlcNAc
Test: glycan array binding signal (z-score within array); higher = stronger binding
Details: glycan notation: IUPAC condensed, linker removed
About 410 targets per protein were measured; listed, in parts, are those with the strongest signals and a random draw of the rest.
Provide the recorded glycan array binding signal (z-score) for the entries that follow.
One number for each entry.

Worked cases, answers included:
1) GNA (Galanthus nivalis), P30617 (protein) MAKASLLILAAIFLGVITPSCLSDNILYSGETLSTGEFLNYGSFVFIMQEDCNLVLYDVDKPIWATNTGGLSRSCFLSMQTDGNLVVYNPSNKPIWASNTGGQNGNYVCILQKDRNVVIYGTDRWATGTHTGLVGIPASPPSEKYPTAGKIKLVTAK
-0.241
2) DCAL1 (Homo sapiens), Q8IZS7 (protein) MVSNFFHVIQVFEKSATLISKTEHIGFVIYSWRKSTTHLGSRRKFAISIYLSEVSLQKYDCPFSGTSFVVFSLFLICAMAGDVVYADIKTVRTSPLELAFPLQRSVSFNFSTVHKSCPAKDWKVHKGKCYWIAETKKSWNKSQNDCAINNSYLMVIQDITAMVRFNI
-0.172
3) NPA (Narcissus pseudonarcissus), C0HM45 (protein) DNILYSGETLSPGEFLNNGRYVFIMQEDCNLVLYDVDKPIWATNTGGLDRRCHLSMQSDGNLVVYSPRNNPIWASNTGGENGNYVCVLQKDRNVVIYGTARWATGTNIH
-0.152

Would you kindly look at the next entry?
Prompt: Give the measured glycan array binding signal (z-score) of RsaA-N-term (Caulobacter crescentus), P35828 (protein) MAYTTAQLVTAYTNANLGKAPDAATTLTLDAYATQTQTGGLSDAAALTNTLKLVNSTTAVAIQTYQFFTGVAPSAAGLDFLVDSTTNTNDLNDAYYSKFAQENRFINFSINLATGAGAGATAFAAAYTGVSYAQTVATAYDKIIGNAVATAAGVDVAAAVAFLSRQANIDYLTAFVRANTPFTAAADIDLAVKAALIGTILNAATVSGIGGYATATAAMINDLSDGALSTDNAAGVNLFTAYPSSGVSGSTLSLTTGTDTLTGTANNDTFVAGEVAGDGSGWSHPQFEKGG .
Response: 1.14
